All values here come from patent US20230139171A1.

biological target: human TLR7 (Homo sapiens); construct: host or cells: HEK-Blue cells; assay: TLR7 inhibition reporter assay (HEK-Blue cells, SEAP reporter, gardiquimod stimulation); format: cell-based; conditions: HEK-Blue cells overexpressing human TLR7, SEAP reporter, gardiquimod 7.5 μM; read-out: TLR7 IC50
Sequence (Q9NYK1 27-1049): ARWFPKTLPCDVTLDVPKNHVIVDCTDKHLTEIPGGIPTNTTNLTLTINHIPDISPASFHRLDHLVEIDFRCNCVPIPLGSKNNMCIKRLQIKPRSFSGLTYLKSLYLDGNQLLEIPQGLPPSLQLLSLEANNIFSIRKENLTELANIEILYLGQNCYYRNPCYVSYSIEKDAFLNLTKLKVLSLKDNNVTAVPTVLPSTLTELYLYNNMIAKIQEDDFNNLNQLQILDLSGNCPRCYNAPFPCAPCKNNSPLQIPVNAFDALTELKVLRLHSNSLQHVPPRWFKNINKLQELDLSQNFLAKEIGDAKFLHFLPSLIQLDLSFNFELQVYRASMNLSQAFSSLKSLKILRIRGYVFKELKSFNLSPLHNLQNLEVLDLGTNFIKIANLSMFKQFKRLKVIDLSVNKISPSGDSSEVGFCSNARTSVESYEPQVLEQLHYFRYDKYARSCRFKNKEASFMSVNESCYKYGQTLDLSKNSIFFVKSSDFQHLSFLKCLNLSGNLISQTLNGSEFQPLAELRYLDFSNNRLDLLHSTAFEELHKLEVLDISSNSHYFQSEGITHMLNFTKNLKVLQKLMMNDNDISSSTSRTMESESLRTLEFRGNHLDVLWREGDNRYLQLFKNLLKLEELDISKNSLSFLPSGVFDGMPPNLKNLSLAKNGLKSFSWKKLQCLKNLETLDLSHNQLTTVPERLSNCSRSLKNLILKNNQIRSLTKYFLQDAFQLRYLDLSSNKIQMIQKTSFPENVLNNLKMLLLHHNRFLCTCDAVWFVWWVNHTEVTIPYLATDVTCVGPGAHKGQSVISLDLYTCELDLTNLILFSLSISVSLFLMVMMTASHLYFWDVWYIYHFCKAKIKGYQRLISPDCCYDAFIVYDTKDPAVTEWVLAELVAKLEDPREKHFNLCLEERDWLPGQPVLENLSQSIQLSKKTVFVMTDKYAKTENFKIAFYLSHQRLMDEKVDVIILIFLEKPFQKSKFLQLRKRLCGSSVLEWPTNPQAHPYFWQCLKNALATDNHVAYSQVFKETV
value.kind: IC50 (nM)

Consider the reported IC50 for these compounds:
{"columns": ["compound", "IC50 [nM]"],
 "data": [
  ["COC1CN(C2CCC(c3nc4c(C(C)C)c(-c5cn6ncnc6c(C)c5C)[nH]c4s3)CC2)C1 (single isomer, unassigned) [Example 189]", 3.35],
  ["Cc1cc(-c2[nH]c3nc(C4CCN(CC5(C)COC5)CC4)sc3c2C(C)C)cn2ncnc12", 50],
  ["Cc1c(-c2[nH]c3sc(C4CCC(NC(C)C)CC4)nc3c2C(C)C)cn2ncnc2c1C (single isomer, unassigned) [Example 195]", 2.24],
  ["COc1cc(-c2[nH]c3sc(C4CCC(NC(=O)CNCC(C)C)CC4)nc3c2C(C)C)cn2ncnc12 (centres unmarked)", 1.34],
  ["Cc1c(-c2[nH]c3sc(C4CCC(N5CC(O)C5)CC4)nc3c2C(C)C)cn(C)c(=O)c1C (single isomer, unassigned) [Example 263]", 4.74],
  ["Cc1c(-c2[nH]c3sc(C4CCC(NCC(C)(C)O)CC4)nc3c2C(C)C)cn(C)c(=O)c1C (single isomer, unassigned) [Example 251]", 10.6],
  ["Cc1c(-c2[nH]c3sc(C4CCC(NC5CCS(=O)(=O)C5)CC4)nc3c2C(C)C)cn2ncnc2c1C (single isomer, unassigned) [Example 231]", 6.32],
  ["COc1cc(-c2[nH]c3sc(C4CCC(N(C)CCS(C)(=O)=O)CC4)nc3c2C(C)C)cn2ncnc12 (single isomer, unassigned) [Example 164]", 1.32],
  ["Cc1c(-c2[nH]c3sc(C4CCC(NCC5(S(C)(=O)=O)CC5)CC4)nc3c2C(C)C)cn(C)c(=O)c1C (single isomer, unassigned) [Example 257]", 13.6],
  ["Cc1c(-c2[nH]c3sc(N4CCN(C5COC5)CC4)nc3c2C(C)C)cn2ncnc2c1C", 25.6]
]}

P. Cc1c(-c2[nH]c3sc(C4CCC(N5CCC5)CC4)nc3c2C(C)C)cn(C)c(=O)c1C (single isomer, unassigned) [Example 256]
Q. Cc1c(-c2[nH]c3sc(C4CCC(N5CCC6(CC5)COC6)CC4)nc3c2C(C)C)cn2ncnc2c1C (single isomer, unassigned) [Example 237]
R. Cc1c(-c2[nH]c3sc(C4CCC(N5CC(O)(C(F)(F)F)C5)CC4)nc3c2C(C)C)cn2ncnc2c1C (single isomer, unassigned) [Example 235]
S. Cc1c(-c2[nH]c3sc(C4CCN(S(C)(=O)=O)CC4)nc3c2C(C)C)cn2ncnc2c1C
T. COc1cc(-c2[nH]c3sc(C4CCC(N)CC4)nc3c2C(C)C)cn2ncnc12 (single isomer, unassigned) [Example 92]
INPUT: Order the items by recorded IC50; the first position goes to the largest value. Return value: ordered labels per request.
OUTPUT: P, Q, S, R, T
(P: 34.3 nM, Q: 4.87 nM, S: 1.84 nM, R: 1.05 nM, T: 0.31 nM)

A. COc1cc(-c2[nH]c3sc(C4CCC(N5CCC6(CCNC6)C5)CC4)nc3c2C(C)C)cn2ncnc12 (single isomer, unassigned) [Example 114]
B. COc1cc(-c2[nH]c3sc(C4CCC(N5CC6(CCOCC6)C5)CC4)nc3c2C(C)C)cn2ncnc12 (single isomer, unassigned) [Example 110]
INPUT: Form field 'greater IC50' accepts A or B ; which applies? Refer to your chosen entry by its label in the reply.
OUTPUT: A
(A: 3.63 nM, B: 2.21 nM)

A. Cc1c(-c2[nH]c3sc(N4CCN(C)C[C@H]4C)nc3c2C(C)C)cn2ncnc2c1C
B. COc1cc(-c2[nH]c3sc(C4CCC(N5CC(OC)C5)CC4)nc3c2C(C)C)cn2ncnc12 (single isomer, unassigned) [Example 122]
INPUT: Form field 'greater IC50' accepts A or B ; which applies? Refer to your chosen entry by its label in the reply.
OUTPUT: A
(A: 3.84 nM, B: 1.95 nM)

P. Cc1cc(-c2[nH]c3sc(C4CCC(N5CC6(COC6)C5)CC4)nc3c2C(C)C)cn2ncnc12 (single isomer, unassigned) [Example 136]
Q. Cc1cc(-c2[nH]c3sc(C(=O)NCC4(S(C)(=O)=O)CC4)nc3c2C(C)C)cn2ncnc12
R. COc1cc(-c2[nH]c3sc(C4CCC(N5CCCOCC5)CC4)nc3c2C(C)C)cn2ncnc12 (single isomer, unassigned) [Example 103]
S. CCN(C)C1CCC(c2nc3c(C(C)C)c(-c4cn5ncnc5c(C)c4C)[nH]c3s2)CC1 (single isomer, unassigned) [Example 190]
INPUT: Give the ascending ranking of the items by reported IC50. Return value: ordered labels per request.
OUTPUT: S, P, R, Q

a. Cc1cc(-c2[nH]c3sc(C4CCN(C5CCOCC5)CC4)nc3c2C(C)C)cn2ncnc12
b. Cc1cc(-c2[nH]c3sc(N4CCN(C(=O)CN(C)C)C[C@H]4C)nc3c2C(C)C)cn2ncnc12
INPUT: Form field 'greater IC50' accepts a or b ; which applies? Refer to your chosen entry by its label in the reply.
OUTPUT: b
